assayed system: T1, StrepII-tagged ROR1-extracellular domain (human) (human, UniProt Q01973 30-406)
T1 construct: extracellular domain; also called ROR1-strep; soluble ROR1-strep
T1 sequence (Q01973 other isoform, or with tags, fused parts or gaps): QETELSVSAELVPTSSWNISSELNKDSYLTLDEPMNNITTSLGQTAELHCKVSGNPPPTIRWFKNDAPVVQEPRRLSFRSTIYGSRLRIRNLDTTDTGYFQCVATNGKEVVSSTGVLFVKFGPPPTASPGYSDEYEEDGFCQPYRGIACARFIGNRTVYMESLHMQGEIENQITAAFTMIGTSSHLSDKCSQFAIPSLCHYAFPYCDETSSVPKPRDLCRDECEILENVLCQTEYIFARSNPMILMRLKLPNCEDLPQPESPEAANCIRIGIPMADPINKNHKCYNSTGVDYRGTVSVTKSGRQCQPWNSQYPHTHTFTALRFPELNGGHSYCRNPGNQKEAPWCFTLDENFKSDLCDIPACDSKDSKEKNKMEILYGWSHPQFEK
assay explanation: SPR (Biacore T200), IgG from HEK293T supernatant captured by anti-human Fc, ROR1-strep 2.5-20 nM as analyte, 1:1 model, 25 C
Method: For initial determination of huR12 clone affinities and parental R12 using transient HEK293T supernatants, IgG expression vectors were transiently transfected into 293T cells and IgG titers in supernatants were quantified by ELISA. […] Association was measured at a flow of 30 μl/min for 120 s, and dissociation was followed for 1000 s. […]
measured metric: koff (s⁻¹)
Answers are plain numbers, in s⁻¹.

Name the recorded koff for huR12_4, humanized from R12 (antibody, human IgG1, V domains shown, Human IgG1 with lambda light chain) VH: QVQLVESGGELVQPGGSLTLSCKASGFDFSAYYMSWVRQAPGKGLEWIATIYPSSGKTYYAASVQGRFTISADNAKNTVYLQMNSLTAADTATYFCARDSYADDGALFNIWGKGTLVTVSS VL: QLVLTQSPSVSAALGSSAKITCTLSSAHKTDTIDWYQQLAGQAPRYLMYVQSDGSYEKRSGVPDRFSGSASGADRYLAISRVQADDEADYYCGADYIGGYVFGGGTQLTVLG .
9.93e-05
